The entries that follow carry IC50 values tested on Tyrosine-protein kinase CSK (Homo sapiens), drawn from several published reports.

| STRUCTURE_STRING | UNITS_SYMBOL | VALUE_COMPARATOR | IC50 |
| --- | --- | --- | --- |
| Cc1ccc(F)c(S(=O)(=O)Nc2cccc(-c3nc(-c4cncc(F)c4)sc3-c3ccnc(NCCO)n3)c2F)c1F | nM | = | 15.9 |
| CN1CCN(c2ccc(Nc3nccc(-c4cn(C5CCCCC5)nc4-c4cccc(NS(=O)(=O)c5c(F)cccc5F)c4F)n3)cn2)CC1 | nM | = | 2.5 |
| COc1cc(OC)cc(C(=O)c2c[nH]c3ncc(-c4cccc(NS(C)(=O)=O)c4)cc23)c1 | nM | ≤ | 10000 |
| COc1ccn2c(-c3ccnc(NCCO)n3)c(-c3cccc(NS(=O)(=O)c4c(Cl)cccc4Cl)c3F)nc2c1 | nM | = | 28.4 |
| Nc1nccc(-c2sc(-c3ccc(C(F)(F)F)cc3)nc2-c2cccc(NS(=O)(=O)c3c(F)cccc3F)c2F)n1 | nM | = | 328 |
| CN(C)C/C=C/C(=O)N(C)c1cccc(-n2nc(-c3ccc(Cl)cc3)c3c(N)ncnc32)c1 | nM | > | 1000 |
| Nc1nccc(-c2sc(-c3cccc(N4CCC4)n3)nc2-c2cccc(NS(=O)(=O)c3c(F)cccc3F)c2F)n1 | nM | = | 1060 |

---

The entries that follow carry IC50 values tested on UniProtKB P41240, drawn from several published reports.
PROPERTY_MEASURED: IC50 (nM)

| STRUCTURE_STRING | PROPERTY_MEASURED | VALUE_COMPARATOR | TEST_VALUE |
| --- | --- | --- | --- |
| CNc1nccc(-c2sc(N3CCCCC3)nc2-c2cccc(NS(=O)(=O)c3c(F)ccc(C)c3F)c2F)n1 | IC50 | = | 10.1 |
| CNc1nccc(-c2sc(-c3cnccn3)nc2-c2cccc(NS(=O)(=O)c3c(F)cccc3F)c2F)n1 | IC50 | = | 19.1 |
| CCN(CC)c1nc(-c2cccc(NS(=O)(=O)c3c(F)cccc3F)c2F)c(-c2ccnc(NC)n2)s1 | IC50 | = | 7.4 |
| COc1cccc(C(=O)c2c[nH]c3ncc(-c4cccc(NC(C)=O)c4)cc23)c1F | IC50 | ≤ | 10000 |
| Cn1c(-c2ccccc2)nc(-c2ccnc(N)n2)c1-c1cccc(NS(=O)(=O)c2c(F)cccc2F)c1F | IC50 | = | 1220 |
| Cc1ncc(-c2nc(-c3cccc(NS(=O)(=O)c4c(F)ccc(C)c4F)c3F)c(-c3ccnc(NCCO)n3)s2)cn1 | IC50 | = | 16.6 |
| CNc1nccc(-c2sc(-c3ccccc3)nc2-c2cccc(NS(=O)(=O)c3c(F)ccc(C)c3F)c2F)n1 | IC50 | = | 33.1 |
| O=S(=O)(Nc1cccc(-c2nc(N3CCCCC3)sc2-c2ccnc(NC3CC3)n2)c1F)c1c(F)ccc(Cl)c1F | IC50 | = | 4.9 |
| Cc1ccc(Cl)c(S(=O)(=O)Nc2cccc(-c3nc(-c4cncc(F)c4)sc3-c3ccnc(N)n3)c2F)c1Cl | IC50 | = | 12.6 |
| CNc1nccc(-c2sc(N(C)C)nc2-c2cccc(NS(=O)(=O)c3c(F)cccc3F)c2F)n1 | IC50 | = | 25.8 |
| CC(C)Oc1ccn2c(-c3ccnc(N)n3)c(-c3cccc(NS(=O)(=O)c4c(F)cccc4F)c3F)nc2c1 | IC50 | = | 134 |
| COc1cc2nc(-c3cccc(NS(=O)(=O)c4c(F)cccc4F)c3F)c(-c3ccnc(N)n3)n2cc1Cl | IC50 | = | 137 |
| CCCS(=O)(=O)Nc1cccc(C(=O)c2c[nH]c3ncc(Br)cc23)c1F | IC50 | ≤ | 10000 |
| Cc1ccc(-c2nc(-c3cccc(NS(=O)(=O)c4c(F)ccc(C)c4F)c3F)c(-c3ccnc(NC4CC4)n3)s2)nn1 | IC50 | = | 10.3 |
| Cc1ccc(F)c(S(=O)(=O)Nc2cccc(-c3nc(-c4ccc(F)cn4)sc3-c3ccnc(N)n3)c2F)c1F | IC50 | = | 92.8 |
| O=S(=O)(Nc1cccc(-c2nc(N3CCC3)sc2-c2ccnc(NC3CC3)n2)c1F)c1c(F)ccc(Cl)c1F | IC50 | = | 4.1 |
| COCCOc1ccc(-c2nn([C@@H]3CCN(C(=O)/C=C/CN(C)C)C3)c3ncnc(N)c23)cc1 | IC50 | > | 1000 |
| Cc1ccc(F)c(S(=O)(=O)Nc2cccc(-c3nc(-c4ccccc4)sc3-c3ccnc(NCCO)n3)c2F)c1F | IC50 | = | 13.1 |
| Nc1nccc(-c2[nH]c(-c3ccccc3)nc2-c2cccc(NS(=O)(=O)c3c(F)cccc3F)c2F)n1 | IC50 | = | 33.2 |
| CNc1nccc(-c2sc(-c3cncc(F)c3)nc2-c2cc(Cl)cc(NS(=O)(=O)c3c(F)cccc3F)c2F)n1 | IC50 | = | 16.5 |
| CN(C)C/C=C/C(=O)N1CC[C@@H](n2nc(-c3ccc(F)cc3)c3c(N)ncnc32)C1 | IC50 | > | 1000 |
| CNc1nccc(-c2sc(-c3cncc(F)c3)nc2-c2cccc(NS(=O)(=O)c3c(F)cc(OC)cc3F)c2F)n1 | IC50 | = | 18.3 |
| CNc1nccc(-c2sc(N3CCOCC3)nc2-c2cccc(NS(=O)(=O)c3c(F)cccc3F)c2F)n1 | IC50 | = | 13.5 |
| COc1ccn2c(-c3ccnc(NCCO)n3)c(-c3cccc(NS(=O)(=O)c4c(Cl)ccc(C)c4Cl)c3F)nc2c1 | IC50 | = | 30.3 |
| CC(=O)N[C@@H](C)CNc1nccc(-c2sc(-c3ccccc3)nc2-c2cccc(NS(=O)(=O)c3c(F)cccc3F)c2F)n1 | IC50 | = | 87.3 |
| CNc1nccc(-c2c(-c3cccc(NS(=O)(=O)c4c(Cl)ccc(C)c4Cl)c3F)nc3cc(OC)ccn23)n1 | IC50 | = | 41.3 |
| O=S(=O)(Nc1cccc(-c2nc(-c3cncc(F)c3)sc2-c2ccnc(NC3CC3)n2)c1F)c1c(Cl)cccc1Cl | IC50 | = | 6 |
